Assay: chemical genetic growth profiling, strain panel (AID 1159580);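 further: tested at 20 µM; growth read once vehicle control cultures reached saturation at 30 °C; lower values mean less growth of the strain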
Settings: S. cerevisiae deletion strains, growth OD, locus YER111C, strain swi4, active compounds read low
Out of some 5,500 compounds screened, about 2,000 (36%) were called active. Not shown: some 18% with an inconclusive outcome. Some of the results follow.
Please respond with rule met when measured normalized growth is strictly beneath 1, and with rule not met in all other cases.

CN(CCC(N)CC(=O)N[C@H]1C=CC(n2ccc(N)nc2=O)O[C@@H]1C(=O)O)C(=N)N (stereo partly specified)
rule met

# next compound below
In: For NC(=O)c1ncn(C2O[C@H](CO)[C@@H](O)[C@H]2O)c1N (stereo partly specified) , is the recorded normalized growth below the cut-off of 1?
Out: rule not met

Each recorded value in this set is attributed to PubChem BioAssay AID1159580.
